Test system: KB
Assay overview: Cytotoxicity against human KB cells by MTT assay
Assay type: functional, cell-based

Structure as smiles: Cc1c(O)c(O)cc2c1C(=O)C=C1[C@@]2(C)CC[C@@]2(C)[C@@H]3C[C@@H](C)C(=O)C[C@]3(C)CC[C@]12C
Target or system: KB
Measure unit: µg/mL
IC50: 30
//
Structure as smiles: COc1c(O)cc2c(c1C)C(=O)C=C1[C@@]2(C)CC[C@]2(C)[C@@H]3C[C@@H](C)C(=O)C[C@]3(C)CC[C@]12C
Target or system: KB
Measure unit: µg/mL
IC50: 11
//
Structure as smiles: COC(=O)[C@]1(C)CC[C@]2(C)CC[C@]3(C)C4=CC=C5C(=CC(=O)C(O)=C5C)[C@]4(C)CC[C@@]3(C)[C@@H]2C1
Target or system: KB
Measure unit: µg/mL
IC50: 0.55
//
Structure as smiles: CC1=C(O)C(=O)C=C2C1=CC=C1[C@@]2(C)CC[C@@]2(C)[C@@H]3C[C@@H](C)C(=O)C[C@]3(C)CC[C@]12C
Target or system: KB
Measure unit: µg/mL
IC50: 0.28
//
Structure as smiles: COC(=O)[C@]1(C)CC[C@]2(C)CC[C@]3(C)C4=CC(=O)c5c(cc(O)c(O)c5C)[C@]4(C)CC[C@@]3(C)[C@@H]2C1
Target or system: KB
Measure unit: µg/mL
IC50: 2.8
